# system-under-test: αvβ6 (Homo sapiens, UniProt P06756+P18564)
# Sequence (P18564 22-707 limits assumed, one chain of several): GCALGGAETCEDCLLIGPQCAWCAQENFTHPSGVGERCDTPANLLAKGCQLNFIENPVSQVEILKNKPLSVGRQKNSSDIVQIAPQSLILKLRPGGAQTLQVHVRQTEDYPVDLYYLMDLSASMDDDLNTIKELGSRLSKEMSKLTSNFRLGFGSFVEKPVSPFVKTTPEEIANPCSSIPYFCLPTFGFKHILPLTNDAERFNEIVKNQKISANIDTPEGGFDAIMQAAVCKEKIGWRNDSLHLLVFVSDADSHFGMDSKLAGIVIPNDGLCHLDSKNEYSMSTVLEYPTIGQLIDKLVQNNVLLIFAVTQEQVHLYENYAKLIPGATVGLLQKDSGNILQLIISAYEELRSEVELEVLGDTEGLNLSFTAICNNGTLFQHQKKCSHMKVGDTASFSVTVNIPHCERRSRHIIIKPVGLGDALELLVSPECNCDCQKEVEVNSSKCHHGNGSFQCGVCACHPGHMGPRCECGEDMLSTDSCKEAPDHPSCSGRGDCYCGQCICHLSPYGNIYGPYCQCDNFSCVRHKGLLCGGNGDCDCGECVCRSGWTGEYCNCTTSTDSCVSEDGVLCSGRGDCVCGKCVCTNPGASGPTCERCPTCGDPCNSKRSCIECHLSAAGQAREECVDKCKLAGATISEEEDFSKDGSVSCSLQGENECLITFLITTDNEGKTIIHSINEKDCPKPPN
# test-description: Solid Phase Integrin αvβ6 Assay
reported-property: IC50

* O=C(N[C@@H](CNC(=O)[C@@H]1CCCN(CCCc2ccc3c(n2)NCCC3)C1)C(=O)O)c1cccc(C2CC2)c1 | < 100 nM
* O=C(O)CC(NC(=O)[C@@H]1CCCN(CCCc2ccc3c(n2)NCCC3)C1)c1cccc2ccccc12 (stereo partly drawn) | < 100 nM
* O=C(O)C(CNC(=O)[C@@H]1CCCN(CCCc2ccc3c(n2)NCCC3)C1)c1ccc(C2CC2)cc1 (single isomer, unassigned) | 100 to 1000 nM
* CC1(C)CCCN(c2cccc([C@H](CO[C@@H]3CCCN(CCCc4ccc5c(n4)NCCC5)C3)CC(=O)O)c2)C1 | < 100 nM
* C[C@H]1C[C@@H](C(=O)NC[C@H](C(=O)O)c2ccc3ccccc3c2)CN(CCCc2ccc3c(n2)NCCC3)C1 | < 100 nM
* O=C(CC[C@@H](NC(=O)[C@H]1CCCN1S(=O)(=O)c1ccccc1)C(=O)O)N[C@H]1CCN(CCCCc2ccc3c(n2)NCCC3)C1 | > 1000 nM

----------
# system-under-test: αvβ1 (Homo sapiens, UniProt P05556+P06756)
# Sequence (P06756 31-992 limits assumed): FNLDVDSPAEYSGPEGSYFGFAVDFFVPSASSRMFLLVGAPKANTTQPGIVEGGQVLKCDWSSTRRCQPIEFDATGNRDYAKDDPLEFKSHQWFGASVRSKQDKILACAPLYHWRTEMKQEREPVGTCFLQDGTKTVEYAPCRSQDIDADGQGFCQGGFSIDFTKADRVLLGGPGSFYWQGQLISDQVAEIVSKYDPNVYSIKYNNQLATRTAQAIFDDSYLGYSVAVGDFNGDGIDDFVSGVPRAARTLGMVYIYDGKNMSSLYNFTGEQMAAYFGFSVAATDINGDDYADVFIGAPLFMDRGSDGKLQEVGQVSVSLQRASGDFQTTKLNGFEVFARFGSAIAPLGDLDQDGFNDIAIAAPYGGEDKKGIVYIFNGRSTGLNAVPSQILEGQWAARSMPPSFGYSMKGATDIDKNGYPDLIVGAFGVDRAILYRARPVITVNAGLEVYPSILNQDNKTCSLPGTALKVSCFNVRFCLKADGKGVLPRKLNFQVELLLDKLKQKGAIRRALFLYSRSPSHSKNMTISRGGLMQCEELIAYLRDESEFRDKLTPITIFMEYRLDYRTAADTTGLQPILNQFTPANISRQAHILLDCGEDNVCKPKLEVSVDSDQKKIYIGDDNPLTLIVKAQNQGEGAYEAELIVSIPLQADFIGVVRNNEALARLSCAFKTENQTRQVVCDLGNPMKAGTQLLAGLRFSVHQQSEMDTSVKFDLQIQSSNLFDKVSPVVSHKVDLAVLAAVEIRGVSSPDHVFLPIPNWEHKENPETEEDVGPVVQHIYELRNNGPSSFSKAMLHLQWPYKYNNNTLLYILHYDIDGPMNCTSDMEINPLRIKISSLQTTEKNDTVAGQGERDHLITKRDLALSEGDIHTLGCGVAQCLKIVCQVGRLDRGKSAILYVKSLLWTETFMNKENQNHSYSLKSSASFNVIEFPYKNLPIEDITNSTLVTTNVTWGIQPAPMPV
# Sequence (P05556 21-728 limits assumed): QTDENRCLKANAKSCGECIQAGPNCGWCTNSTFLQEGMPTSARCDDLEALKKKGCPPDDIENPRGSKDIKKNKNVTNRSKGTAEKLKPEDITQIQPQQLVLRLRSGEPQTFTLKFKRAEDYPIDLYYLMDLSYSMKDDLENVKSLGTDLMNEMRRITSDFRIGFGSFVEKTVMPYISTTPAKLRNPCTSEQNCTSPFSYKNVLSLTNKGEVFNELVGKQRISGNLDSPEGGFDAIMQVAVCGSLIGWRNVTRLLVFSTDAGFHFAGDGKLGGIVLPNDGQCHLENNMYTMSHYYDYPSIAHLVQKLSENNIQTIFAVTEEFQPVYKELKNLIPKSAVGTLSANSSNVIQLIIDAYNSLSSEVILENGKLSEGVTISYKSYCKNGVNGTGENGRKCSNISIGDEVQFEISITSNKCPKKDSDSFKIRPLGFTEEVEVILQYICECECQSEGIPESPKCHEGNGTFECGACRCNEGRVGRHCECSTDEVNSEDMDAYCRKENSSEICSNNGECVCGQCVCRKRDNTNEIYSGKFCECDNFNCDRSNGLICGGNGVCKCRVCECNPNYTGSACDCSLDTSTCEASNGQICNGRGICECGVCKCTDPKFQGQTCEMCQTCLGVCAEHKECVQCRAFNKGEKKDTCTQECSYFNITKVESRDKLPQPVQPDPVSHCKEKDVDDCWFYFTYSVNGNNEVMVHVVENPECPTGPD
# test-description: Solid Phase Integrin αvβ1 Assay
# Type: binding
Structures can show the parent of a compound that is named as a salt.
Each entry below carries its reported IC50.
reported-property: IC50

• O=C(O)C[C@H](CC(=O)N[C@@H]1CCN(C(=O)CCCc2ccc3c(n2)NCCC3)C1)c1ccccc1 = > 1000 nM
• O=C(O)C[C@H](O[C@@H]1CCCN(Cc2ccc3c(n2)NCCC3)C1)c1ccccc1 = > 1000 nM
• O=C(O)C[C@H](NC(=O)[C@@H]1CCCN(CCCc2ccc3c(n2)NCCC3)C1)c1cccc(-c2ccccc2)c1 [Compound 240, hydrochloride] = < 100 nM
• O=C(O)C[C@H](NC(=O)[C@@H]1CCCN(CCCc2ccc3c(n2)NCCC3)C1)c1ccc2ccccc2c1 [Compound 207, hydrochloride] = 100 to 1000 nM

----------
# system-under-test: αvβ6 (Homo sapiens, UniProt P06756+P18564)
# test-description: Solid Phase Integrin αvβ6 Assay
Where a name gives a salt, the structure may show the parent alone.
reported-property: IC50

* CC1(C)CCN(c2cccc([C@@H](CO[C@@H]3CCCN(CCCc4ccc5c(n4)NCCC5)C3)CC(=O)O)c2)CC1 [Compound 571] | < 100 nM
* O=C(N[C@@H](CNC(=O)[C@@H]1CCCN(CCCc2ccc3c(n2)NCCC3)C1)C(=O)O)c1c(F)cccc1F [Compound 310] | 100 to 1000 nM
* O=C(O)C[C@H](NC(=O)[C@@H]1CCCN(CCCc2ccc3c(n2)NCCC3)C1)c1ccc2c(c1)CCC2 [Compound 201-A, hydrochloride] | < 100 nM
* O=C(O)C[C@H](NC(=O)[C@@H]1CCCN(CCc2ccc3c(n2)NCCC3)C1)c1ccccc1 [Compound 290] | 100 to 1000 nM
* O=C(NC[C@H](C(=O)O)c1ccccc1-c1ccccc1)[C@@H]1CCCN(CCCc2ccc3c(n2)NCCC3)C1 [Compound 341] | > 1000 nM
* O=C(O)[C@@H](c1ccccc1)[C@H](O)CO[C@@H]1CCCN(CCCc2ccc3c(n2)NCCC3)C1 [Compound 609] | > 1000 nM
* O=C(O)[C@@H](CO[C@@H]1CCCN(Cc2ccc3c(n2)NCCC3)C1)Nc1ncnc2ccccc12 [Compound 411] | > 1000 nM
* O=C(NC[C@@H](C(=O)O)c1cnc2[nH]ccc2c1)[C@@H]1CCCN(CCCc2ccc3c(n2)NCCC3)C1 [Compound 324] | > 1000 nM
* O=C(N[C@@H](CNC(=O)[C@@H]1CCCN(CCCc2ccc3c(n2)NCCC3)C1)C(=O)O)c1cccc2c1CCC2 [Compound 549] | < 100 nM
* O=C(N[C@@H](CNC(=O)[C@@H]1CCCN(CCCc2ccc3c(n2)NCCC3)C1)C(=O)O)C1CC2CCC1CC2 (stereo partly drawn) [Compound 338] | < 100 nM
* O=C(O)C[C@H](NC(=O)[C@@H]1CCCN(CCCc2ccc3c(n2)NCCC3)C1)c1cccc(-n2cccc2)c1 [Compound 536] | < 100 nM
* C[C@@H]1C[C@H](C(=O)NC[C@H](C(=O)O)c2ccc3ccccc3c2)CN(CCCc2ccc3c(n2)NCCC3)C1 [Compound 634] | 100 to 1000 nM
* O=C(O)C[C@H](NC(=O)[C@@H]1CCCN(CCCc2ccc3c(n2)NCCC3)C1)c1cc(F)cc(C(F)(F)F)c1 [Compound 208-B] | 100 to 1000 nM
* O=C(O)C[C@H](CO[C@@H]1CCCN(CCCc2ccc3c(n2)NCCC3)C1)c1cccc([C@H]2CCOC2)c1 [Compound 493] | 100 to 1000 nM
* O=C(NC[C@H](Nc1ccnc2ccccc12)C(=O)O)[C@@H]1CCCN(CCCc2ccc3c(n2)NCCC3)C1 [Compound 273] | < 100 nM
* O=C(O)C[C@H](NC(=O)[C@@H]1CCCN(CCCc2ccc3c(n2)NCCC3)C1)c1cccc2c1CCCC2 [Compound 212-A] | > 1000 nM
* CC1(C)CCCN(c2cccc([C@H](CNC(=O)[C@@H]3CCCN(CCCc4ccc5c(n4)NCCC5)C3)C(=O)O)c2)C1 [Compound 598] | > 1000 nM
* Cc1csc2c(N[C@@H](CCO[C@@H]3CCCN(CCCc4ccc5c(n4)NCCC5)C3)C(=O)O)ncnc12 [Compound 471] | 100 to 1000 nM
* O=C(O)C[C@@H](CO[C@@H]1CCCN(CCCc2ccc3c(n2)NCCC3)C1)c1cccc(-n2cccn2)c1 [Compound 515] | < 100 nM
* O=C(O)C[C@@H](NC(=O)[C@@H]1CCCN(CCCc2ccc3c(n2)NCCC3)C1)c1cc(F)cc(C(F)(F)F)c1 [Compound 208-A] | < 100 nM
* O=C(O)C(CNC(=O)[C@@H]1CCCN(CCCc2ccc3c(n2)NCCC3)C1)c1cccc(Br)c1 (stereo partly drawn) [Compound 255, hydrochloride] | < 100 nM
* O=C(O)C[C@H](NC[C@@H]1CCCN(CCCc2ccc3c(n2)NCCC3)C1)c1ccccc1 [Compound 292, hydrochloride] | > 1000 nM
* C[C@@H]1C[C@@H](C(=O)N[C@@H](CC(=O)O)c2ccccc2)CN(CCCc2ccc3c(n2)NCCC3)C1 [Compound 553] | 100 to 1000 nM
* O=C(O)C[C@H](NC(=O)[C@@H]1CCCN(CCCc2ccc3c(n2)NCCC3)C1)c1ccc2c(c1)C1(CC2)CC1 [Compound 541] | < 100 nM
* CC1(C)CN(c2cccc([C@@H](CO[C@@H]3CCCN(CCCc4ccc5c(n4)NCCC5)C3)CC(=O)O)c2)CCO1 [Compound 568] | < 100 nM
* O=C(NC[C@H](Nc1cccc2ccccc12)C(=O)O)[C@@H]1CCCN(CCCc2ccc3c(n2)NCCC3)C1 [Compound 261] | < 100 nM
* O=C(NC[C@H](C(=O)O)c1cccc(Br)c1)[C@@H]1CCCN(CCCc2ccc3c(n2)NCCC3)C1 [Compound 303] | < 100 nM

----------
# system-under-test: αvβ6 (Homo sapiens, UniProt P06756+P18564)
# test-description: Solid Phase Integrin αvβ6 Assay
pIC50: −log10 of the molar value.
reported-property: pIC50

• O=C(CC[C@@H](NC(=O)C12CCC(CC1)CC2)C(=O)O)N[C@H]1CCN(C(=O)CCCc2ccc3c(n2)NCCC3)C1 = < 6.00
• O=C(NC[C@H](C(=O)O)c1cccc2nn(CC3CC3)cc12)[C@@H]1CCCN(CCCc2ccc3c(n2)NCCC3)C1 = > 7.00
• COC(C)(C)C1Cc2c(cccc2C(CNC(=O)[C@@H]2CCCN(CCCc3ccc4c(n3)NCCC4)C2)C(=O)O)CO1 (stereo partly drawn) = > 7.00
• CNC(=O)c1cccc(CNC(=O)[C@@H]2CCCC[C@H]2C(=O)N[C@@H](CNC(=O)[C@@H]2CCCN(CCCc3ccc4c(n3)NCCC4)C2)C(=O)O)c1 = > 7.00
• O=C(NC[C@H](Nc1ncnc2c(C(F)(F)F)cccc12)C(=O)O)[C@@H]1CCCN(CCCc2ccc3c(n2)NCCC3)C1 = > 7.00
• O=C(Cc1ccccc1Cl)N[C@@H](CNC(=O)[C@@H]1CCCN(CCCc2ccc3c(n2)NCCC3)C1)C(=O)O = > 7.00

----------
# system-under-test: αvβ6 (Homo sapiens, UniProt P06756+P18564)
# test-description: Solid Phase Integrin αvβ6 Assay
# Assay type: binding
pIC50: −log10 of the molar value. Structures can show the parent of a compound that is named as a salt.
Each entry below carries its reported pIC50.
reported-property: pIC50

* COc1ccc(C(C)C)c(C(CC(=O)O)NC(=O)[C@@H]2CCCN(CCCc3ccc4c(n3)NCCC4)C2)c1 (stereo partly shown) [Compound 210, hydrochloride] | 6.00 to 7.00
* O=C(O)[C@@H](CCO[C@@H]1CCCN(CCc2ccc3c(n2)NCCC3)C1)Nc1ncnc2ccccc12 [Compound 406] | 6.00 to 7.00
* O=C(N[C@@H](CCO[C@@H]1CCCN(CCCc2ccc3c(n2)NCCC3)C1)C(=O)O)c1c(F)cc(N2CCOCC2)cc1F [Compound 467] | > 7.00
* O=C(O)[C@H](CO[C@@H]1CCCN(CCCc2ccc3c(n2)NCCC3)C1)NC(=O)C12CCC(CC1)CC2 [Compound 400] | > 7.00
* O=C(O)[C@@H](CO[C@@H]1CCCN(Cc2ccc3c(n2)NCCC3)C1)NC(=O)C12CCC(CC1)CC2 [Compound 403] | < 6.00
* O=C(N[C@@H](CNC(=O)[C@@H]1CCCN(CCCc2ccc3c(n2)NCCC3)C1)C(=O)O)c1nnc(C2CC2)o1 [Compound 313] | > 7.00
* CC1(C)CCCN(c2cccc([C@@H](CO[C@@H]3CCCN(CCCc4ccc5c(n4)NCCC5)C3)CC(=O)O)c2)C1 [Compound 570] | > 7.00
